Molecular target: human ENT1 (Homo sapiens, UniProt Q99808)
Construct: JAR cells expressing ENT1 were purchased from ATCC; host or cells: JAR cells
Sequence (Q99808 1-456): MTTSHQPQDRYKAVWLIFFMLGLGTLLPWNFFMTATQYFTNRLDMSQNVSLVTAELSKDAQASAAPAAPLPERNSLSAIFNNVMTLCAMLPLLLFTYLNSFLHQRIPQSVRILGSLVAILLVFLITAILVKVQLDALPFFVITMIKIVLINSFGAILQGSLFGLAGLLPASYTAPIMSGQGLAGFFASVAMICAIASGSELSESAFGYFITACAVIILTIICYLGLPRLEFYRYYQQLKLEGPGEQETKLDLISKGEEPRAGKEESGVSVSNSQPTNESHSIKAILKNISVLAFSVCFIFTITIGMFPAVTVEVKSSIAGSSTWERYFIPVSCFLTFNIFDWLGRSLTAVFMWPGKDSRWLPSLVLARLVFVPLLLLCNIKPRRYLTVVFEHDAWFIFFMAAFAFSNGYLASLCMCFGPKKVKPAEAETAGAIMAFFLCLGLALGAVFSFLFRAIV
Assay: ENT1 binding assay (competition with Sahenta-DY647 on JAR cells)
Settings: competition with SAHENTA-DY647 binding; IC50 categorized; read-out: Binding Assay IC50
pIC50: −log10 of the molar value.
Overview of reported pIC50 across a group of molecules:
value_type: pIC50

INSERT INTO assay_data (molecule, target_desc, result) VALUES
  ('CC1OC(n2c(NC3CC(C)(O)C3)nc3c(OCc4ccc([N+](=O)[O-])cc4)ncnc32)C(O)C1O (single isomer, unassigned) [Compound 134]', 'human ENT1 (Homo sapiens, UniProt Q99808)', '> 9.00'),
  ('CC1OC(n2c(NC3CC(C)(O)C3)nc3c(OCc4ccc([N+](=O)[O-])cc4)ncnc32)C(O)C1O (single isomer, unassigned) [Compound 133]', 'human ENT1 (Homo sapiens, UniProt Q99808)', '7.70 to 9.00'),
  ('CC(=O)NC[C@H]1O[C@@H](n2cnc3c(SCc4ccc([N+](=O)[O-])cc4)ncnc32)[C@H](O)[C@@H]1O', 'human ENT1 (Homo sapiens, UniProt Q99808)', '6.30 to 7.70');

###

molecular target: human ENT1 (Homo sapiens, UniProt Q99808); construct: JAR cells expressing ENT1 were purchased from ATCC; host or cells: JAR cells; test: ENT1 binding assay (competition with Sahenta-DY647 on JAR cells); settings: competition with SAHENTA-DY647 binding; IC50 categorized; read-out: Binding Assay IC50
value_type: IC50

INSERT INTO measurements (molecule, target_desc, value_type, result) VALUES
  ('C[C@H]1O[C@@H](n2c(N[C@H]3C[C@@](C)(O)C3)nc3c(OCc4ccc(C#N)cc4)ncnc32)[C@H](O)[C@@H]1O', 'human ENT1 (Homo sapiens, UniProt Q99808)', 'IC50', '20 to 500 nM'),
  ('C[C@H]1O[C@@H](n2c(NCCCS(C)(=O)=O)nc3c(N4CCc5ccc([N+](=O)[O-])cc5C4)ncnc32)[C@H](O)[C@@H]1O', 'human ENT1 (Homo sapiens, UniProt Q99808)', 'IC50', '< 1 nM'),
  ('C[C@H]1O[C@@H](n2c(NC3CCCC3)nc3c(OCc4ccc(OC(F)F)nc4)ncnc32)[C@H](O)[C@@H]1O', 'human ENT1 (Homo sapiens, UniProt Q99808)', 'IC50', '< 1 nM'),
  ('O=[N+]([O-])c1ccc(COc2ncnc3c2ncn3[C@H]2C[C@H](O)[C@@H](CO)O2)cc1', 'human ENT1 (Homo sapiens, UniProt Q99808)', 'IC50', '> 500 nM'),
  ('C[C@H]1O[C@@H](n2cnc3c(NCc4ccc(OC5CCOCC5)cc4)ncnc32)[C@H](O)[C@@H]1O', 'human ENT1 (Homo sapiens, UniProt Q99808)', 'IC50', '> 500 nM'),
  ('C[C@H]1O[C@@H](n2c(NCCO)nc3c(OCc4ccc([N+](=O)[O-])cc4)ncnc32)[C@H](O)[C@@H]1O', 'human ENT1 (Homo sapiens, UniProt Q99808)', 'IC50', '1 to 20 nM'),
  ('C[C@H]1O[C@@H](n2c(NC3CCC(O)CC3)nc3c(N4CCc5ccc([N+](=O)[O-])cc5C4)ncnc32)[C@H](O)[C@@H]1O (stereo partly shown)', 'human ENT1 (Homo sapiens, UniProt Q99808)', 'IC50', '< 1 nM'),
  ('CNc1nc2c(OCc3ccc([N+](=O)[O-])cc3)ncnc2n1[C@@H]1O[C@H](C)[C@@H](O)[C@H]1O', 'human ENT1 (Homo sapiens, UniProt Q99808)', 'IC50', '20 to 500 nM'),
  ('C[C@H]1O[C@@H](n2c(NC3CCOCC3)nc3c(OCc4ccc(OC(F)F)nc4)ncnc32)[C@H](O)[C@@H]1O', 'human ENT1 (Homo sapiens, UniProt Q99808)', 'IC50', '< 1 nM'),
  ('C[C@H]1O[C@@H](n2c(NC3CCC(F)(F)C3)nc3c(OCc4ccc([N+](=O)[O-])cc4)ncnc32)[C@H](O)[C@@H]1O (stereo partly shown)', 'human ENT1 (Homo sapiens, UniProt Q99808)', 'IC50', '< 1 nM'),
  ('C[C@H]1O[C@@H](n2c(NC3CCCC3)nc3c(OCc4ccc([N+](=O)[O-])nc4)ncnc32)[C@H](O)[C@@H]1O', 'human ENT1 (Homo sapiens, UniProt Q99808)', 'IC50', '< 1 nM'),
  ('C[C@H]1O[C@@H](n2c(NC3CCCC3)nc3c(OCc4ccc(C#N)nc4)ncnc32)[C@H](O)[C@@H]1O', 'human ENT1 (Homo sapiens, UniProt Q99808)', 'IC50', '1 to 20 nM'),
  ('C[C@H]1O[C@H](n2cnc3c(OCc4ccc(C#N)c(F)c4)nc(Cl)nc32)[C@H](O)[C@@H]1O', 'human ENT1 (Homo sapiens, UniProt Q99808)', 'IC50', '> 500 nM');

###

Biological target: human ENT1 (Homo sapiens, UniProt Q99808)
Construct: JAR cells expressing ENT1 were purchased from ATCC; host or cells: JAR cells
Sequence (Q99808 1-456): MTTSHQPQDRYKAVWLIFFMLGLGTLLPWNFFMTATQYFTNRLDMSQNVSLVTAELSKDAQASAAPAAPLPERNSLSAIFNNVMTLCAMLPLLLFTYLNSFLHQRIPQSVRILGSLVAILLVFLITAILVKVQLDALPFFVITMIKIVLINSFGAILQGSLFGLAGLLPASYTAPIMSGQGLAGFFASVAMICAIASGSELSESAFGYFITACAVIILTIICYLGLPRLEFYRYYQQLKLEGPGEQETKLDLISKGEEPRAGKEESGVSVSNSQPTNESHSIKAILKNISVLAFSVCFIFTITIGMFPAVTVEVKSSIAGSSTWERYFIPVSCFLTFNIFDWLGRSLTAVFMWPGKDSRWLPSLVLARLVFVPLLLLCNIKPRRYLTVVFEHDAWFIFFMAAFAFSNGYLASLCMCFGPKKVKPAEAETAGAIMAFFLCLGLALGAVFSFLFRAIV
Assay: ENT1 binding assay (competition with Sahenta-DY647 on JAR cells)
Conditions: competition with SAHENTA-DY647 binding; IC50 categorized; read-out: Binding Assay IC50
value_type: IC50

INSERT INTO results (molecule, result) VALUES
  ('C[C@H]1O[C@@H](n2cnc3c(C(=O)NCc4ccccc4)ncnc32)[C@H](O)[C@@H]1O', '> 500 nM'),
  ('C[C@H]1O[C@@H](n2cnc3c(CN4Cc5ccc(C#N)cc5C4)ncnc32)[C@H](O)[C@@H]1O', '> 500 nM'),
  ('C[C@H]1O[C@@H](n2c(NCC3CCC(F)(F)C3)nc3c(OCc4ccc(C#N)cc4)ncnc32)[C@H](O)[C@@H]1O (stereo partly shown)', '1 to 20 nM'),
  ('CC(C)Nc1nc2c(N3CCc4ccc([N+](=O)[O-])cc4C3)ncnc2n1[C@@H]1O[C@H](C)[C@@H](O)[C@H]1O', '1 to 20 nM');

###

Overview of reported pIC50 across a group of molecules:
Target: human ENT1 (Homo sapiens)
Construct: JAR cells expressing ENT1 were purchased from ATCC; host or cells: JAR cells
Sequence (Q99808 1-456): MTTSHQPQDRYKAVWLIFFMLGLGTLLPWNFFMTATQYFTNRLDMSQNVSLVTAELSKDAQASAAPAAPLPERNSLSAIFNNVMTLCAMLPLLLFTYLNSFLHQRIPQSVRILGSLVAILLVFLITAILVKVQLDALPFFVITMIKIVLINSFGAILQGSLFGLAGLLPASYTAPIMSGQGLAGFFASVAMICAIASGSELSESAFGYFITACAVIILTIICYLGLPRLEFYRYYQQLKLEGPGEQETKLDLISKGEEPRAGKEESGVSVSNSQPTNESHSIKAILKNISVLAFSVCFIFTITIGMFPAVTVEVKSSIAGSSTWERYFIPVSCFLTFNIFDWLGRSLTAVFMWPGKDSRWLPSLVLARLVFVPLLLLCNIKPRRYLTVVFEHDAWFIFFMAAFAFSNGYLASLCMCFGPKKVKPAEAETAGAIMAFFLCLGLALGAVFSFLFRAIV
Assay: ENT1 binding assay (competition with Sahenta-DY647 on JAR cells)
Details: competition with SAHENTA-DY647 binding; IC50 categorized; read-out: Binding Assay IC50
Procedure: Compounds of the present disclosure were assayed to show ability to bind to human ENT1. The assay is a competition between a compound of interest and Sahenta-DY647, an ENT1 inhibitor that emits fluorescence (Ex=630 nm, Em=670 nm). By measuring the fluorescence at the end of the assay, one can assess the binding potency of the compounds tested. […] The inhibitory effect of the test compound was expressed as a percentage of the inhibition of SAHENTA-DY647 binding.
pIC50: −log10 of the molar value.
value_type: pIC50

INSERT INTO assay_data (compound_structure, result) VALUES
  ('CC(C)(O)[C@H]1O[C@@H](n2cnc3c(SCc4ccc(OC(F)(F)F)cc4)ncnc32)[C@H](O)[C@@H]1O', '< 6.30'),
  ('C[C@H]1O[C@@H](n2c(NCCO)nc3c(OCc4ccc(C#N)cc4)ncnc32)[C@H](O)[C@@H]1O', '6.30 to 7.70'),
  ('C[C@H]1O[C@@H](n2c(NCC3CCC(F)(F)CC3)nc3c(OCc4ccc(C#N)cc4)ncnc32)[C@H](O)[C@@H]1O', '7.70 to 9.00'),
  ('C[C@H]1O[C@@H](n2cnc3c(N4CCc5ccc([N+](=O)[O-])cc5C4)ncnc32)[C@H](O)[C@@H]1O', '7.70 to 9.00'),
  ('C[C@H]1O[C@@H](n2cnc3c(OCc4ccccc4C(F)(F)F)ncnc32)[C@H](O)[C@@H]1O', '< 6.30'),
  ('COc1ncc(CNc2nc3c(OCc4ccc(C#N)cc4)ncnc3n2[C@@H]2O[C@H](C)[C@@H](O)[C@H]2O)cn1', '7.70 to 9.00'),
  ('C[C@H]1O[C@@H](n2cnc3c(OCc4ccc(F)c(F)c4)ncnc32)[C@H](O)[C@@H]1O', '6.30 to 7.70');
